procedure-text: Clearance in CD1 albino mouse at 50 mg/kg, po
Assay type: ADME, organism-based
Parameters: dose 50 mg/kg, route oral
condition-notes: in vivo
measure-name: CL/F (L/h/kg)
Please respond with the number in L/h/kg and leave the unit unwritten.

Value lookup for CL/F; key = Clc1ccc(C(Nc2ccnc3cc(Cl)ccc23)c2ccc(CN3CCNCC3)cc2)cc1 (racemic)
4.92

* * *

procedure-text: Elimination half life in CD1 albino mouse plasma at 50 mg/kg, po measured from 6 to 48 hrs post-dosing
Assay type: ADME, organism-based
Set-up: dose 50 mg/kg, route oral
condition-notes: read-out: beta t1/2 (converted)
measure-name: half-life

Using the record for Clc1ccc(C(Nc2ccnc3cc(Cl)ccc23)c2ccc(CN3CCNCC3)cc2)cc1 (racemic) , report its half-life.
22 h

Source of measurements: ChEMBL document CHEMBL2169878
